system: Puccinia recondita; experiment: foliar fungal disease test on plants, Puccinia recondita (wheat); assay type: in vivo; conditions: 100 ppm foliar spray plus root drench ca. 40 ppm a.i./dry soil; protectant
quantity: disease control grade, PUCCINIA RECONDITA (Wheat)

Task: Assign disease control grade, PUCCINIA RECONDITA (Wheat) to the following record: COC(=O)/C(=C/SC)c1ccccc1Oc1ccccc1 [1 of Table II]
Output: 4

Task: Assign disease control grade, PUCCINIA RECONDITA (Wheat) to the following record: COC(=O)/C(=C\SC)c1ccccc1/C=C/c1ccccc1 [10 of Table I]
Output: 2 (6-25% of disease on untreated plants)

----------
tested on: Plasmopara viticola; experiment: foliar fungal disease test on plants, Plasmopara viticola (vine); format: in vivo; conditions: 100 ppm foliar spray plus root drench ca. 40 ppm a.i./dry soil; protectant
Record form. Attribute: disease control grade, PLASMOPARA VITICOLA (Vine). Fill in for each entry.

Task: Assign disease control grade, PLASMOPARA VITICOLA (Vine) to the following record: COC(=O)/C(=C\SC)c1ccccc1/C=C/c1ccccc1
Output: 4

Task: Assign disease control grade, PLASMOPARA VITICOLA (Vine) to the following record: COC(=O)/C(=C/SC)c1ccccc1Oc1ccccc1
Output: 4
